Numbers sourced from patent US20180185504A1.

# measured on: T1, hPRLR.mmh (soluble monomeric human PRLR) (human)
# T1 construct: soluble monomeric PRLR protein
# T1 chain: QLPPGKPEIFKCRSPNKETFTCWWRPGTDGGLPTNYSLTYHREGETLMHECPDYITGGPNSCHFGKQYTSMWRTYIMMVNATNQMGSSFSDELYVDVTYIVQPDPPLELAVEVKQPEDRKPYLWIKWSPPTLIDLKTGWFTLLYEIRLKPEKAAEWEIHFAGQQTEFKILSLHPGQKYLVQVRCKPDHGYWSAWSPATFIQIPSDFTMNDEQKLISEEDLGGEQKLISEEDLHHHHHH
# assay explanation: SPR (Biacore), antibody capture, 37 C
# Procedure: Measurements were conducted on a T200 Biacore instrument. Kinetic association (kₐ) and dissociation (kd) rate constants were determined by processing and fitting the data to a 1:1 binding model using Scrubber 2.0 curve fitting software.
measured endpoint: kon (M⁻¹ s⁻¹)

H1H6953N (antibody, human IgG1, V domains shown, also called H1M6953N) VH: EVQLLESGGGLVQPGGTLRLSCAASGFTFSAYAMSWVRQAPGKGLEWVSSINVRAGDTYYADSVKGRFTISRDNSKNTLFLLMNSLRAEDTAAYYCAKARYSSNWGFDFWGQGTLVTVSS VL: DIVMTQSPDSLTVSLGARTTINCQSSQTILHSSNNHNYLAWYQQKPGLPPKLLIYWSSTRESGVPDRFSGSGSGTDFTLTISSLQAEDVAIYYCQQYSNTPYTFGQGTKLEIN = 1.1e+06
H1H6774P (antibody, human IgG1, V domains shown, human IgG1 Fc (H1H)) VH: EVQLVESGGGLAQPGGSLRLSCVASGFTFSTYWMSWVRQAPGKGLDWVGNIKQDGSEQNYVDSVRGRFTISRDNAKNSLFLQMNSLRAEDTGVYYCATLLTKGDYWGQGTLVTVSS VL: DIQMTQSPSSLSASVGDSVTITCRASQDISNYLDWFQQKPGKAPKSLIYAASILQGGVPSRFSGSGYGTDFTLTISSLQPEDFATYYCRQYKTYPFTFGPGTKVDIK = 1.07e+06
H1H6976N (antibody, human IgG1, V domains shown, also called H2M6976N) VH: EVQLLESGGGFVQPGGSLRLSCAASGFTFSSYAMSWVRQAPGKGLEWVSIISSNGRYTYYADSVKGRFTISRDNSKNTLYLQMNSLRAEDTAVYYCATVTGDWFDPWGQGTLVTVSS VL: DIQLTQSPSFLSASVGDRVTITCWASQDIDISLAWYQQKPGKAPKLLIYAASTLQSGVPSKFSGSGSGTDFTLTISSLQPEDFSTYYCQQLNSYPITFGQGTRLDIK = 777000
H1H6765P (antibody, human IgG1, V domains shown, human IgG1 Fc (H1H)) VH: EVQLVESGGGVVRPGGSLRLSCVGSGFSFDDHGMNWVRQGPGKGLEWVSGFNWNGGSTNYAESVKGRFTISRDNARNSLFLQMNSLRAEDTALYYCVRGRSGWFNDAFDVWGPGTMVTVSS VL: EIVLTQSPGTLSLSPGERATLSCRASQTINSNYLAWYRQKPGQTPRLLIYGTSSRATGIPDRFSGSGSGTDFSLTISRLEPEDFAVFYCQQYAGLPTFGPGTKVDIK = 1.25e+06
H1H6782P (antibody, human IgG1, V domains shown, human IgG1 Fc (H1H)) VH: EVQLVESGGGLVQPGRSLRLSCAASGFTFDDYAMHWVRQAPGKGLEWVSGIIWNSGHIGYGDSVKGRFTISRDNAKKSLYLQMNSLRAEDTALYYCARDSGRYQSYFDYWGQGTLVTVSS VL: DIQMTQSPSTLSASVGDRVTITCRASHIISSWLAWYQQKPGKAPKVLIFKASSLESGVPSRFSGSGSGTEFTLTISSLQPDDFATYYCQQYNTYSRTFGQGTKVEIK = 557000
H1H6795P (antibody, human IgG1, V domains shown, human IgG1 Fc (H1H)) VH: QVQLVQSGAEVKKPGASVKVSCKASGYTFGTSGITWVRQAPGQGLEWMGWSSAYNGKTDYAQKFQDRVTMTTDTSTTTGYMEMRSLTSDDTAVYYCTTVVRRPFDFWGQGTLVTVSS VL: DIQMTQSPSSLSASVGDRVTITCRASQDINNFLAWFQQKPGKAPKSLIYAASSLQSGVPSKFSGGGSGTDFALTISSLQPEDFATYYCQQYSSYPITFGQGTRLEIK = 1.36e+06
